System: CAKI-1
Test: NCI tumour cell line growth inhibition, 48 h
The source made the active and inactive calls. No stated cut-off is given here; in the data, active = GI50 up to about 1.1 µM and inactive = higher.
// allowed return values: active, inactive

Take a look at these entries with their results.
- molecule: "COC(=O)[C@@H](NC(=O)[C@H](N)Cc1ccc(N(CCCl)CCCl)cc1)C(C)C"
  class: "active"
- molecule: "OCCCCn1cnc2c(O)ncnc21"
  class: "inactive"
- molecule: "CC1=NN(C(=O)c2ccccc2O)C(=O)/C1=C/c1cccc([N+](=O)[O-])c1"
  class: "inactive"

Test call, this molecule: "CC[C@H](C)C(=O)O[C@H]1CCC=C2C=C[C@H](C)[C@H](CC[C@@H]3C[C@@H](O)CC(=O)O3)[C@H]21"
inactive

Test call, this molecule: "NC(=O)n1ncc(Cl)c(Cl)c1=O"
inactive

Test call, this molecule: "Oc1ccc2c(c1)CCc1c-2n(CCN2CCOCC2)c2ccc(O)cc12"
inactive

Test call, this molecule: "CC(C)=CC(=O)Cc1nc2cc(C)c(C)cc2[nH]c1=O"
inactive

Test call, this molecule: "CC#CCCN(CC#N)Cc1ccccc1"
inactive

====

System: UACC-257
Experiment: NCI tumour cell line growth inhibition, 48 h
Calls of active or inactive are those of the source. Cut-off read from the data, not from the text of the source: active = GI50 up to about 1.1 µM and inactive = higher.
attribute-measured: GI50

Would you please look over these solved cases?
- compound: "CC(C)=C1C2CC3(C)CCC2(C)CCC13.CC1=CCC2C3(C)CCC2(C(C)C)C1C3 (stereo unspecified)"
  GI50: "27.2 µM (inactive)"
- compound: "N[C@@H](CSCSC[C@H](N)C(=O)O)C(=O)O"
  GI50: "> 225 µM (inactive)"
- compound: "O=C(CCc1n[nH]c(=S)o1)Nc1ccccc1C(F)(F)F"
  GI50: "> 100 µM (inactive)"
- compound: "NC1CC(=O)c2csc(Cl)c21 (stereo unspecified)"
  GI50: "14.9 µM (inactive)"
- compound: "CCCCCCc1nn2c(-c3ccncc3)nnc2s1"
  GI50: "> 10 µM (inactive)"

Could you now consider this next compound?
Record "CC(=O)Nc1cc(C(=O)Nc2cc(C(=O)Nc3cc(C(=O)Nc4cc(C(=O)Nc5cc(C(=O)NCCC(=O)NCCCN(C)C)n(C)c5)n(C)c4)n(C)c3)n(C)c2)n(C)c1" has UACC-257 GI50 equal to 76.2 µM (inactive)

====

System: SF-295
Assay: NCI tumour cell line growth inhibition, 48 h
Calls of active or inactive are those of the source. Cut-off read from the data, not from the text of the source: active = GI50 up to about 1.1 µM and inactive = higher.
The compounds listed here are annotated with their GI50.

Would you please look over these solved cases?
- compound: "Cc1ccc(/N=N/c2ccc(O)c(CN(C)C)c2)cc1"
  GI50: "18.1 µM (inactive)"
- compound: "c1ccc2c(CNCCCCCCNCc3cccc4ccccc34)cccc2c1"
  GI50: "12.2 µM (inactive)"

Value of measured GI50 for the entry "CCCCCCCC(=O)N/N=C/c1ccc(Sc2nccn2C)c([N+](=O)[O-])c1" : 15.6 µM (inactive)

Value of measured GI50 for the entry "O=c1[nH]c(-c2ccccc2)nc2cc([N+](=O)[O-])c(/C(Cl)=C/c3ccccc3)cc12" : 20.7 µM (inactive)

Value of measured GI50 for the entry O=C(OCC1OC(c2nn[nH]n2)C(OC(=O)c2ccccc2)C1OC(=O)c1ccccc1)c1ccccc1 (configuration not stated) : > 100 µM (inactive)

Value of measured GI50 for the entry "O=c1oc2ccc3ccccc3c2cc1-c1nc2ccccc2o1" : 26.2 µM (inactive)

Value of measured GI50 for the entry CN1N=C(c2ccccc2)C(C(c2ccccc2[N+](=O)[O-])C2C(=O)N(C)N=C2c2ccccc2)C1=O (configuration not stated) : > 100 µM (inactive)

Value of measured GI50 for the entry "COc1ccc2[nH]c3c(O)nncc3c2c1" : > 100 µM (inactive)

Value of measured GI50 for the entry CC1=C(/C=C/C(C)=C/C=C/C(C)=C/C(=O)Nc2ccc(O)cc2)C(C)(C)CCC1 [FENRETINIDE] : 2.85 µM (inactive)

Value of measured GI50 for the entry CC(=O)OC1=C2CC3(C)OC(=O)CC(C)(C)C3=CC=C2C=C(C(C)C)C1=O (configuration not stated) : 1.66 µM (inactive)

Value of measured GI50 for the entry "CC(=O)NNc1nc(C)c(C(/C=C/c2ccc(Cl)cc2)=N/NC(=S)NN)s1" : > 100 µM (inactive)

These measurements were taken from ChEMBL document CHEMBL1201862.
